Recorded CC50 by entry
- System: HCT116 MTAP-deleted cell lines
- ASSAY EXPLANATION: Cell viability assay (CellTiter-Glo, 7 days), HCT116 MTAP-deleted
- Format: cell-based
- CONDITION PARAMETERS: Homo sapiens, HCT-116; cell viability assay, HCT116 MTAP-deleted; class symbols; read-out: CC50
READOUT KIND: CC50

{"COMPOUND": "Cc1ncc2c(N)nc3cnc(C(=O)N4CCC[C@@H]5Oc6cc(OC(F)(F)F)c(F)cc6[C@@H]54)cc3n12", "EXPERIMENTAL VALUE": "< 100 nM"}
{"COMPOUND": "CN(C(=O)c1cc2c(cc1F)nc(N)c1cncn12)[C@@H]1COc2cc(-c3cnn(-c4ccccc4)c3)ccc21", "EXPERIMENTAL VALUE": "< 100 nM"}
{"COMPOUND": "CN(C(=O)c1cc2c(cc1F)nc(N)c1cncn12)C1COc2cc(Br)c(F)cc21 (stereo not drawn)", "EXPERIMENTAL VALUE": "< 100 nM"}
{"COMPOUND": "CN(Cc1ccc([C@@H]2C[C@H]2c2ccn(C(F)F)n2)cn1)C(=O)c1cc2c(cc1F)nc(N)c1cncn12", "EXPERIMENTAL VALUE": "100 to 1000 nM"}
{"COMPOUND": "CN(C(=O)c1cc2c(cc1F)nc(N)c1cncn12)[C@@H]1COc2cc(C3=CCOC3(C)C)ccc21", "EXPERIMENTAL VALUE": "< 100 nM"}
{"COMPOUND": "Nc1nc2cnc(C(=O)N3CCC[C@@H]4Oc5cc(C(F)(F)F)ccc5[C@@H]43)cc2n2c(F)ncc12 (single isomer, unassigned)", "EXPERIMENTAL VALUE": "100 to 1000 nM"}
{"COMPOUND": "CN(C(=O)c1cc2c(cc1F)nc(N)c1cncn12)[C@H]1c2ccc(Br)cc2C[C@H]1OC(F)F", "EXPERIMENTAL VALUE": "100 to 1000 nM"}
{"COMPOUND": "Cc1ncn2c1c(N)nc1cnc(C(=O)N(C)[C@@H]3COc4cc(C56CC(C5)C6)ccc43)cc12", "EXPERIMENTAL VALUE": "< 100 nM"}
{"COMPOUND": "Nc1nc2cc(F)c(C(=O)N3CCC(F)(F)C[C@@H]3c3ccc(S(F)(F)(F)(F)F)cc3)cc2n2cncc12", "EXPERIMENTAL VALUE": "< 100 nM"}

###

- System: HCT116 MTAP-deleted cell lines
- ASSAY EXPLANATION: Cell viability assay (CellTiter-Glo, 7 days), HCT116 MTAP-deleted
- Type: cell-based
- CONDITION PARAMETERS: Homo sapiens, HCT-116; cell viability assay, HCT116 MTAP-deleted; class symbols; read-out: CC50
READOUT KIND: CC50

{"COMPOUND": "C[C@H]1CN(C(=O)c2cc3c(cc2F)nc(N)c2cncn23)[C@H]2c3ccc(C(F)(F)F)c(F)c3C[C@H]2O1 [Ff-690]", "READOUT KIND": "CC50", "EXPERIMENTAL VALUE": "< 0.1 µM"}
{"COMPOUND": "CN(C(=O)c1cc2c(cc1F)nc(N)c1cncn12)[C@@H]1COc2cc(C3CC3(C)C)ccc21 (stereo partly drawn) [Ff-475]", "READOUT KIND": "CC50", "EXPERIMENTAL VALUE": "< 0.1 µM"}
{"COMPOUND": "Cc1ncn2c1c(N)nc1cc(Cl)c(C(=O)N(C)[C@@H]3COc4cc(C(F)(F)F)ccc43)cc12 [Ff-492]", "READOUT KIND": "CC50", "EXPERIMENTAL VALUE": "< 0.1 µM"}
{"COMPOUND": "COC1(C#Cc2ccc3c(c2)OC[C@H]3N(C)C(=O)c2cc3c(cc2F)nc(N)c2cncn23)CCC1 [Ff-517]", "READOUT KIND": "CC50", "EXPERIMENTAL VALUE": "0.1 to 1 µM"}
{"COMPOUND": "CN(C(=O)c1cc2c(cc1F)nc(N)c1cncn12)[C@H](CC1CC1)c1ccc(C(F)(F)F)cn1 [Ff-541]", "READOUT KIND": "CC50", "EXPERIMENTAL VALUE": "0.1 to 1 µM"}
{"COMPOUND": "CN(C(=O)c1cc2c(cc1F)nc(N)c1cncn12)[C@H]1c2ccc(-c3cnn(C(F)F)c3)cc2C[C@H]1OC(F)F [Ff-583]", "READOUT KIND": "CC50", "EXPERIMENTAL VALUE": "0.1 to 1 µM"}

These data points were gathered from patent US12448388B2.
